System: A. baumannii clinical isolate LAC 08
Test: Antibiotic susceptibility profile
Type: cell-based, Acinetobacter baumannii
Set-up: key: Resistance; Intermediate; Susceptible
Quantity Measured: Antibiotic susceptibility

| Molecule | Quantity Measured | Result |
| --- | --- | --- |
| NC[C@H]1O[C@H](O[C@H]2[C@H](O)[C@@H](O[C@H]3O[C@H](CO)[C@@H](O)[C@H](N)[C@H]3O)[C@H](N)C[C@@H]2N)[C@H](N)C[C@@H]1O [TOB, Tobramycin] | Antibiotic susceptibility | R |
| CC(C)(O/N=C(\C(=O)N[C@@H]1C(=O)N2C(C(=O)[O-])=C(C[n+]3ccccc3)CS[C@H]12)c1csc(N)n1)C(=O)O [CAZ, Ceftazidime] | Antibiotic susceptibility | I |
| NCC[C@H](O)C(=O)N[C@@H]1C[C@H](N)[C@@H](O[C@H]2O[C@H](CN)[C@@H](O)[C@H](O)[C@H]2O)[C@H](O)[C@H]1O[C@H]1O[C@H](CO)[C@@H](O)[C@H](N)[C@H]1O [AMK, Amikacin] | Antibiotic susceptibility | I |
| CO/N=C(\C(=O)N[C@@H]1C(=O)N2C(C(=O)O)=C(COC(C)=O)CS[C@H]12)c1csc(N)n1 [CTX, Cefotaxime] | Antibiotic susceptibility | I |
| COc1c(N2CCNC(C)C2)c(F)cc2c(=O)c(C(=O)O)cn(C3CC3)c12 (centres unmarked) [GAT, Gatifloxacin] | Antibiotic susceptibility | R |
| C[C@@H](O)[C@H]1C(=O)N2C(C(=O)O)=C(SCCN=CN)C[C@H]12 [IPM, Imipenem] | Antibiotic susceptibility | S |
| C[C@H]1c2cccc(O)c2C(=O)C2=C(O)[C@]3(O)C(=O)C(C(N)=O)=C(O)[C@@H](N(C)C)[C@@H]3[C@@H](O)[C@@H]21 [DOX, Doxycycline] | Antibiotic susceptibility | S |
| CCN1CCN(C(=O)N[C@@H](C(=O)N[C@@H]2C(=O)N3[C@@H]2SC(C)(C)[C@@H]3C(=O)O)c2ccccc2)C(=O)C1=O [PIP, Piperacillin] | Antibiotic susceptibility | I |
| CN(C)[C@@H]1C(O)=C(C(N)=O)C(=O)[C@@]2(O)C(O)=C3C(=O)c4c(O)cccc4[C@@](C)(O)[C@H]3C[C@@H]12 [TET, Tetracycline] | Antibiotic susceptibility | R |
| CO/N=C(\C(=O)N[C@@H]1C(=O)N2C(C(=O)[O-])=C(C[N+]3(C)CCCC3)CS[C@H]12)c1csc(N)n1 [FEP, Cefepime] | Antibiotic susceptibility | I |
| CO/N=C(\C(=O)N[C@@H]1C(=O)N2C(C(=O)O)=C(CSc3nc(=O)c(=O)[nH]n3C)CS[C@H]12)c1csc(N)n1 [CRO, Ceftriaxone] | Antibiotic susceptibility | I |
| C[C@H]1COc2c(N3CCN(C)CC3)c(F)cc3c(=O)c(C(=O)O)cn1c23 [LVX, Levofloxacin] | Antibiotic susceptibility | R |
| C[C@@H](O)[C@H]1C(=O)N2C(C(=O)O)=C(S[C@@H]3CN[C@H](C(=O)N(C)C)C3)[C@H](C)[C@H]12 [MEM, Meropenem] | Antibiotic susceptibility | S |
| CN(C)c1ccc(O)c2c1C[C@H]1C[C@H]3[C@H](N(C)C)C(O)=C(C(N)=O)C(=O)[C@@]3(O)C(O)=C1C2=O [MIN, Minocycline] | Antibiotic susceptibility | S |

====

Test system: A. baumannii reference strain SDF
Experiment: Antibiotic susceptibility profile
Assay type: cell-based, Acinetobacter baumannii
Set-up: key: Resistance; Intermediate; Susceptible

| Molecule | Antibiotic susceptibility |
| --- | --- |
| C[C@@H](O)[C@H]1C(=O)N2C(C(=O)O)=C(SCCN=CN)C[C@H]12 [IPM, Imipenem] | S |
| CO/N=C(\C(=O)N[C@@H]1C(=O)N2C(C(=O)[O-])=C(C[N+]3(C)CCCC3)CS[C@H]12)c1csc(N)n1 [FEP, Cefepime] | I |
| CO/N=C(\C(=O)N[C@@H]1C(=O)N2C(C(=O)O)=C(COC(C)=O)CS[C@H]12)c1csc(N)n1 [CTX, Cefotaxime] | S |
| C[C@@H](O)[C@H]1C(=O)N2C(C(=O)O)=C(S[C@@H]3CN[C@H](C(=O)N(C)C)C3)[C@H](C)[C@H]12 [MEM, Meropenem] | S |
| CC(C)(O/N=C(\C(=O)N[C@@H]1C(=O)N2C(C(=O)[O-])=C(C[n+]3ccccc3)CS[C@H]12)c1csc(N)n1)C(=O)O [CAZ, Ceftazidime] | S |
| C[C@H]1c2cccc(O)c2C(=O)C2=C(O)[C@]3(O)C(=O)C(C(N)=O)=C(O)[C@@H](N(C)C)[C@@H]3[C@@H](O)[C@@H]21 [DOX, Doxycycline] | S |

====

Tested on: A. baumannii clinical isolate LAC 16
Test: Antibiotic susceptibility profile
Type: cell-based, Acinetobacter baumannii
Parameters: key: Resistance; Intermediate; Susceptible

| Compound Structure String | Antibiotic susceptibility |
| --- | --- |
| C[C@@H](O)[C@H]1C(=O)N2C(C(=O)O)=C(SCCN=CN)C[C@H]12 | I |
| CCN1CCN(C(=O)N[C@@H](C(=O)N[C@@H]2C(=O)N3[C@@H]2SC(C)(C)[C@@H]3C(=O)O)c2ccccc2)C(=O)C1=O | R |
| C[C@H]1COc2c(N3CCN(C)CC3)c(F)cc3c(=O)c(C(=O)O)cn1c23 | R |

====

System: A. baumannii reference strain SDF
Assay: Antibiotic susceptibility profile
Format: cell-based, Acinetobacter baumannii
Design: key: Resistance; Intermediate; Susceptible
Quantity Measured: Antibiotic susceptibility

| Compound | Result |
| --- | --- |
| CN(C)[C@@H]1C(O)=C(C(N)=O)C(=O)[C@@]2(O)C(O)=C3C(=O)c4c(O)cccc4[C@@](C)(O)[C@H]3C[C@@H]12 | I |
| COc1c(N2CCNC(C)C2)c(F)cc2c(=O)c(C(=O)O)cn(C3CC3)c12 (centres unmarked) | S |
| CN(C)c1ccc(O)c2c1C[C@H]1C[C@H]3[C@H](N(C)C)C(O)=C(C(N)=O)C(=O)[C@@]3(O)C(O)=C1C2=O | S |
| C[C@H]1COc2c(N3CCN(C)CC3)c(F)cc3c(=O)c(C(=O)O)cn1c23 | S |
| NC[C@H]1O[C@H](O[C@H]2[C@H](O)[C@@H](O[C@H]3O[C@H](CO)[C@@H](O)[C@H](N)[C@H]3O)[C@H](N)C[C@@H]2N)[C@H](N)C[C@@H]1O | S |

====

Test system: A. baumannii clinical isolate LAC 02
Assay: Antibiotic susceptibility profile
Format: cell-based, Acinetobacter baumannii
Design: key: Resistance; Intermediate; Susceptible
Quantity Measured: Antibiotic susceptibility

| Compound Structure String | Result |
| --- | --- |
| C[C@H]1c2cccc(O)c2C(=O)C2=C(O)[C@]3(O)C(=O)C(C(N)=O)=C(O)[C@@H](N(C)C)[C@@H]3[C@@H](O)[C@@H]21 | S |
| NCC[C@H](O)C(=O)N[C@@H]1C[C@H](N)[C@@H](O[C@H]2O[C@H](CN)[C@@H](O)[C@H](O)[C@H]2O)[C@H](O)[C@H]1O[C@H]1O[C@H](CO)[C@@H](O)[C@H](N)[C@H]1O | I |
| C[C@H]1COc2c(N3CCN(C)CC3)c(F)cc3c(=O)c(C(=O)O)cn1c23 | I |
| CCN1CCN(C(=O)N[C@@H](C(=O)N[C@@H]2C(=O)N3[C@@H]2SC(C)(C)[C@@H]3C(=O)O)c2ccccc2)C(=O)C1=O | R |
| NC[C@H]1O[C@H](O[C@H]2[C@H](O)[C@@H](O[C@H]3O[C@H](CO)[C@@H](O)[C@H](N)[C@H]3O)[C@H](N)C[C@@H]2N)[C@H](N)C[C@@H]1O | R |
| CN(C)c1ccc(O)c2c1C[C@H]1C[C@H]3[C@H](N(C)C)C(O)=C(C(N)=O)C(=O)[C@@]3(O)C(O)=C1C2=O | S |

====

System: A. baumannii clinical isolate LAC 14
Experiment: Antibiotic susceptibility profile
Assay type: cell-based, Acinetobacter baumannii
Set-up: key: Resistance; Intermediate; Susceptible

| Compound | Antibiotic susceptibility |
| --- | --- |
| COc1c(N2CCNC(C)C2)c(F)cc2c(=O)c(C(=O)O)cn(C3CC3)c12 (centres unmarked) | R |
| C[C@@H](O)[C@H]1C(=O)N2C(C(=O)O)=C(S[C@@H]3CN[C@H](C(=O)N(C)C)C3)[C@H](C)[C@H]12 | S |
| C[C@H]1c2cccc(O)c2C(=O)C2=C(O)[C@]3(O)C(=O)C(C(N)=O)=C(O)[C@@H](N(C)C)[C@@H]3[C@@H](O)[C@@H]21 | R |
| CO/N=C(\C(=O)N[C@@H]1C(=O)N2C(C(=O)[O-])=C(C[N+]3(C)CCCC3)CS[C@H]12)c1csc(N)n1 [FEP, Cefepime] | R |
| CCN1CCN(C(=O)N[C@@H](C(=O)N[C@@H]2C(=O)N3[C@@H]2SC(C)(C)[C@@H]3C(=O)O)c2ccccc2)C(=O)C1=O | R |
| NC[C@H]1O[C@H](O[C@H]2[C@H](O)[C@@H](O[C@H]3O[C@H](CO)[C@@H](O)[C@H](N)[C@H]3O)[C@H](N)C[C@@H]2N)[C@H](N)C[C@@H]1O | S |
| CN(C)c1ccc(O)c2c1C[C@H]1C[C@H]3[C@H](N(C)C)C(O)=C(C(N)=O)C(=O)[C@@]3(O)C(O)=C1C2=O | R |
| CO/N=C(\C(=O)N[C@@H]1C(=O)N2C(C(=O)O)=C(COC(C)=O)CS[C@H]12)c1csc(N)n1 | R |
| C[C@@H](O)[C@H]1C(=O)N2C(C(=O)O)=C(SCCN=CN)C[C@H]12 | S |
| CC(C)(O/N=C(\C(=O)N[C@@H]1C(=O)N2C(C(=O)[O-])=C(C[n+]3ccccc3)CS[C@H]12)c1csc(N)n1)C(=O)O | R |
| CN(C)[C@@H]1C(O)=C(C(N)=O)C(=O)[C@@]2(O)C(O)=C3C(=O)c4c(O)cccc4[C@@](C)(O)[C@H]3C[C@@H]12 | R |
| NCC[C@H](O)C(=O)N[C@@H]1C[C@H](N)[C@@H](O[C@H]2O[C@H](CN)[C@@H](O)[C@H](O)[C@H]2O)[C@H](O)[C@H]1O[C@H]1O[C@H](CO)[C@@H](O)[C@H](N)[C@H]1O | S |
| C[C@H]1COc2c(N3CCN(C)CC3)c(F)cc3c(=O)c(C(=O)O)cn1c23 | R |
| CO/N=C(\C(=O)N[C@@H]1C(=O)N2C(C(=O)O)=C(CSc3nc(=O)c(=O)[nH]n3C)CS[C@H]12)c1csc(N)n1 | R |
